# CCK receptor (brain) (Cavia porcellus): IC50 values follow
# Sequence (H0VZC5 entry or part of it): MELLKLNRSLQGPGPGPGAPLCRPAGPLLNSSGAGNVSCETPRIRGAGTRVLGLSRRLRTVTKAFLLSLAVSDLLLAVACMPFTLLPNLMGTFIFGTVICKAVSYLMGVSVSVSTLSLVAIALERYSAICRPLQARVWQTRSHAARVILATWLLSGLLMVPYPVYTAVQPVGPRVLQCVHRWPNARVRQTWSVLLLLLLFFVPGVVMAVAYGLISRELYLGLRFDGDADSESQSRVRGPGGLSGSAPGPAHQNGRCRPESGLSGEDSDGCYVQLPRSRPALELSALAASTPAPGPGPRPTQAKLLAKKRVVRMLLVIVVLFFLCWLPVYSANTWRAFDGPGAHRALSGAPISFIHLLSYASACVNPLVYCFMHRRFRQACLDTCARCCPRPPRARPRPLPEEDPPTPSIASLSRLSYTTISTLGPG
Observed property: IC50 (nM)

{"columns": ["Molecule", "Reported"],
 "data": [
  ["O=C(Nc1ccc(Cl)cc1)NC1N=C(c2ccccc2)c2ccccc2-n2cnnc21 (centres unmarked)", 480],
  ["Cc1nnc2n1-c1ccccc1C(c1ccccc1)=NC2NC(=O)Nc1ccc(Cl)cc1 (centres unmarked)", 80]
]}
